Each recorded value in this set is attributed to the NIST ThermoML archive (doi:10.1016/j.jct.2009.11.014).

Conditions: 323.15 K; 60000 kPa; Liquid; vibrating tube
resultType: mass density (kg/m3)

>  <compound>
CCCCCCn1cc[n+](C)c1.F[B-](F)(F)F [1-hexyl-3-methylimidazolium tetrafluoroborate]

>  <resultType>
mass density

>  <dataValue>
1156.42

$$$$
>  <compound>
CCn1cc[n+](C)c1.F[B-](F)(F)F [1-ethyl-3-methylimidazolium tetrafluoroborate]

>  <resultType>
mass density

>  <dataValue>
1292.42

$$$$
>  <compound>
CCCCCCCC[n+]1ccn(C)c1.F[B-](F)(F)F [1-methyl-3-octylimidazolium tetrafluoroborate]

>  <resultType>
mass density

>  <dataValue>
1116.48

$$$$
>  <compound>
CCCCn1cc[n+](C)c1.F[B-](F)(F)F [1-butyl-3-methylimidazolium tetrafluoroborate]

>  <resultType>
mass density

>  <dataValue>
1210.94

$$$$
